Reported log10 Ki values for the following compounds.
system_tested: Adenosine receptor A2a (Cavia porcellus)
assay_remarks: Compound was evaluated for its ability to antagonise cyclic [3H]AMP accumulation in [3H]adenine-labeled guinea pig cerebral cortical slices.
Remember, log10 of Ki, in µM.

Ask | I have this compound here, CCCn1c(=O)c2c(ncn2C)n(C)c1=O , and I need its recorded log10 Ki.
Reply | 0.70

Ask | Entry CC(C)Cn1c(=O)n(C)c(=O)c2c1ncn2Cc1ccccc1 : reported log10 Ki = ?
Reply | 1.04

Ask | Value lookup for log10 Ki; key = CCCn1c(=O)c2c(ncn2CCC)n(CCC)c1=O
Reply | 0.15

Ask | Can you look up the measured log10 Ki of O=c1c2[nH]cnc2n(Cc2ccccc2)c(=O)n1Cc1ccccc1 for me?
Reply | 1.15

Ask | Entry Cn1c(=O)n(CCO)c(=O)c2[nH]cnc21 : reported log10 Ki = ?
Reply | 1.70

Attention now turns to another entry.
Ask | I'd like to know its log10 Ki. The compound in question is C#CCn1cnc2c1c(=O)n(C)c(=O)n2C
Reply | 0.61

* * *

Recorded Selectivity ratio, one value per entry.
Species: Cavia porcellus
assay_remarks: Selectivity was expressed as the ratio is Ki of adenosine A1 receptor to that of adenosine A2 receptor
When you answer, write just the number.

Example results:
Ask | Reported Selectivity ratio for Cn1c(=O)c2nc[nH]c2n(CCO)c1=O : what is it?
Reply | 0.8

Ask | Query (compound): CCn1c(=O)c2nc[nH]c2n(CC)c1=O ; field requested: Selectivity ratio
Reply | 1.1

Ask | Quick check: Selectivity ratio of C=CCn1c(=O)c2nc[nH]c2n(CC=C)c1=O ?
Reply | 2

Ask | Record request: Selectivity ratio value, item C#CCn1cnc2c1c(=O)n(CCC)c(=O)n2CCC
Reply | 1.5

Ask | # input compound: CC(C)Cn1c(=O)n(C)c(=O)c2c1ncn2C ; wanted: its Selectivity ratio
Reply | 2.7

Ask | Give its Selectivity ratio value. Item: CCCn1cnc2c1c(=O)n(C)c(=O)n2CC(C)C
Reply | 1.2

Ask | Returns the measured Selectivity ratio for the input compound. Input: CCCn1c(=O)c2c(ncn2C)n(CCC)c1=O
Reply | 5.8

Ask | # Selectivity ratio lookup, item C=CCn1c(=O)c2c(ncn2C)n(C)c1=O
Reply | 7.2

Next:
Ask | Selectivity ratio for C=CCn1cnc2c1c(=O)n(C)c(=O)n2CC(C)C ?
Reply | 1.5

Ask | Tell me the measured Selectivity ratio of CCCn1c(=O)c2c(ncn2C)n(C)c1=O , please.
Reply | 9.5

Ask | Endpoint output: Selectivity ratio of C#CCn1cnc2c1c(=O)n(C)c(=O)n2C . Value?
Reply | 2.9

Ask | Selectivity ratio lookup needed for CCCn1c(=O)c2nc[nH]c2n(CCC)c1=O , thanks.
Reply | 0.3

Ask | Find the recorded Selectivity ratio belonging to CC(C)Cn1c(=O)n(C)c(=O)c2nc[nH]c21 and report it.
Reply | 0.9

* * *

Species on record: Cavia porcellus
assay_remarks: Selectivity was expressed as the ratio is Ki of adenosine A1 receptor to that of adenosine A2 receptor
# Selectivity ratio per entry

Please review the entries below; each comes with its answer.
Ask | For the compound shown here, C#CCn1c(=O)c2c(ncn2C)n(C)c1=O , give the reported Selectivity ratio.
Reply | 7.5

Ask | What value of Selectivity ratio has been recorded for this entry: O=c1c2[nH]cnc2n(Cc2ccccc2)c(=O)n1Cc1ccccc1
Reply | 0.14

Ask | Quick check: Selectivity ratio of CCCn1c(=O)n(C)c(=O)c2c1ncn2C ?
Reply | 2.7

Ask | Would you kindly share the measured Selectivity ratio for Cn1c(=O)c2c(ncn2CCCl)n(C)c1=O ?
Reply | 1.8

Ask | # input compound: CC(=O)OCCn1cnc2c1c(=O)n(C)c(=O)n2C ; wanted: its Selectivity ratio
Reply | 0.6

---
Ask | Consider the compound shown here: C#CCn1cnc2c1c(=O)n(C)c(=O)n2CC(C)C What is its recorded Selectivity ratio?
Reply | 1.1

* * *

This section presents molecules with their documented Ki values.
system_tested: Adenosine receptor A2a (Cavia porcellus, UniProt P46616)
Sequence (P46616 whole entry): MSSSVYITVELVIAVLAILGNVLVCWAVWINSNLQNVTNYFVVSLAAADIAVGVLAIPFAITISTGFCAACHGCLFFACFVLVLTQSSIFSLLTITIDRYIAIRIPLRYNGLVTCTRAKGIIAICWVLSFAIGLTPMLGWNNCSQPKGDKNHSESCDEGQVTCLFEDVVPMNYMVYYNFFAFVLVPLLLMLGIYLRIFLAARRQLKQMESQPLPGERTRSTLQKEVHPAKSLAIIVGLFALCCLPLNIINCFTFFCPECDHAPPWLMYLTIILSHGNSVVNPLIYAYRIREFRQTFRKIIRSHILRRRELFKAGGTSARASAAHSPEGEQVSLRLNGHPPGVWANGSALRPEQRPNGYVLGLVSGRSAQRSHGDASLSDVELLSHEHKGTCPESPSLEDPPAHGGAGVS
assay_remarks: Compound was evaluated for its ability to antagonise cyclic [3H]AMP accumulation in [3H]adenine-labeled guinea pig cerebral cortical slices.
Hi! Could you send only the number? It should be in µM, unit omitted.

The examples below pair each entry with its known result.
Ask | Query: Ki; subject: C=CCn1c(=O)c2c(ncn2C)n(C)c1=O
Reply | 6.5

Ask | Name the reported Ki value associated with the molecule C=CCn1cnc2c1c(=O)n(C)c(=O)n2C
Reply | 10

Ask | Which measured Ki value corresponds to CC(C)n1c(=O)n(C)c(=O)c2[nH]cnc21 ?
Reply | 6

Ask | Look up Ki: C=CCn1cnc2c1c(=O)n(CCC)c(=O)n2CCC
Reply | 0.7

Ask | Fill in the blank: the reported Ki of Cn1c(=O)c2c(ncn2CCO)n(C)c1=O is ____.
Reply | 135

***
Ask | For the molecule CCCn1c(=O)c2c(ncn2Cc2ccccc2)n(CCC)c1=O , what Ki is on record?
Reply | 1.5

Ask | Which measured Ki value corresponds to CCCn1cnc2c1c(=O)n(C)c(=O)n2C ?
Reply | 11

Ask | Reported Ki, molecule C#CCn1cnc2c1c(=O)n(CCC)c(=O)n2CCC : ____
Reply | 0.4

Ask | Returns the measured Ki for the input molecule. Input: CCCn1c(=O)c2c(ncn2C)n(CCC)c1=O
Reply | 1.2

Ask | Given CC(=O)OCCn1cnc2c1c(=O)n(C)c(=O)n2C , state its recorded Ki.
Reply | 68

Ask | Field request: Ki | item: C=CCn1cnc2c1c(=O)n(C)c(=O)n2CC(C)C
Reply | 8.5

* * *

Species on record: Cavia porcellus
assay_remarks: Selectivity was expressed as the ratio is Ki of adenosine A1 receptor to that of adenosine A2 receptor
// reported Selectivity ratio per item
Write the value as a bare number.

Guide cases for Selectivity ratio, answers given:
Ask | If you can, please state the reported Selectivity ratio value of Cn1c(=O)c2c(ncn2CCO)n(C)c1=O .
Reply | 0.8

Ask | Report Selectivity ratio for CCn1c(=O)c2nc[nH]c2n(C)c1=O please.
Reply | 3

Shift focus to the following entry.
Ask | May I ask what Selectivity ratio has been recorded for CC(C)Cn1c(=O)n(C)c(=O)c2c1ncn2Cc1ccccc1 ?
Reply | 0.8
